Numbers sourced from PubChem BioAssay (Tox21).

target: Muscarinic acetylcholine receptor M1 (Homo sapiens); assay: Cholinergic receptor muscarinic 1 (CHRM1) small molecule antagonists, cell-based qHTS assay (AID 1963588); details: CHRM1-CHO antagonist mode, calcium flux fluorescence; series mostly up to 61.5 µM; also: nearly all actives have a fitted effect of over 40% in size
Results filed as inconclusive are left out. Activity calls are given as the source filed them. Calls follow the shape of the full dose curve.
Entry note: the call must match one of active, inactive

Use the examples below as a reference point.
[[record]]
compound = "C=CCN(CC=C)C(=O)C(Cl)Cl"
class_assignment = "inactive"

[[record]]
compound = "CC[N+](=O)[O-]"
class_assignment = "inactive"

[[record]]
compound = "CSc1nnc(C(C)(C)C)c(=O)n1N"
class_assignment = "inactive"


Below: the item to evaluate.
-- ask Name the outcome recorded for `Clc1ccc(C2(Cn3cncn3)OCCO2)c(Cl)c1` in the assay.
-- reply inactive
